- runDescription: qHTS of pediatric cancer cell lines to identify multiple opportunities for drug repurposing: Primary screen for Rh18 cells (AID 1347102); further: nearly all actives have a fitted effect of over 65% in size
- measurementSetup: Rh18 rhabdomyosarcoma viability, CellTiter-Glo luminescence, 48 h; series mostly up to 46 µM
Records with an inconclusive call do not appear. Activity calls are given as the source filed them. The call rests on the fitted dose curve; in most records, active means well fitted cell-killing curve with a large enough effect; inconclusive means small, poorly fitted or top-dose-only effect; inactive means flat fitted curve, though single readings scatter.
Answer with one of the outcomes active, inactive

Below are worked cases with known answers.
Test call for this compound, please: "C[C@@H]1C[C@H]2[C@@H]3CCC4=CC(=O)C=C[C@]4(C)[C@@]3(F)[C@@H](O)C[C@]2(C)[C@H]1C(=O)CO"
inactive

Test call for this compound, please: COc1ccc(OC)c(C(O)CNC(=O)CN)c1 (stereo unspecified)
inactive

Test call for this compound, please: "Oc1ccc(O)cc1"
inactive

Test call for this compound, please: "CC(C)(C)CC(C)(C)c1ccc(OCCOCC[N+](C)(C)Cc2ccccc2)cc1"
active

Test call for this compound, please: "O=C(COc1ccc(Cl)cc1)N1CCN(Cc2ccc3c(c2)OCO3)CC1"
inactive

New cases:
Test call for this compound, please: "Cc1ccc(Nc2c(F)cccc2Cl)c(CC(=O)O)c1"
inactive

Test call for this compound, please: "CN1CCC[C@@H]1c1cccnc1"
inactive

Test call for this compound, please: "CN1CCN(C(c2ccccc2)c2ccccc2)CC1"
inactive

Test call for this compound, please: "CC1(C)OC[C@@H](COC(=O)CCc2ccc(OC[C@@H](O)CNCCNC(=O)N3CCOCC3)cc2)O1"
inactive

Test call for this compound, please: NC(CS)C(=O)O (stereo unspecified)
inactive

Test call for this compound, please: "COc1ccc(C2C(=O)c3ccccc3C2=O)cc1"
inactive

----------
- System: Dd2
- runDescription: qHTS profiling for inhibitors of Plasmodium falciparum proliferation (AID 504749); further: nearly all actives have a fitted effect of over 60% in size
- measurementSetup: P. falciparum in erythrocytes, SYBR Green DNA, 72 h; series mostly up to 28.7 µM
Results filed as inconclusive are left out. The source made the active and inactive calls. Calls come from the whole dose curve; as a rule, active = well fitted inhibition curve with a large enough effect; inconclusive = small, poorly fitted or top-dose-only effect; inactive = flat fitted curve, though single readings scatter.
Answer with one of the outcomes active, inactive

Test call for this compound, please: "Oc1c(I)cc(Cl)c2cccnc12"
inactive

Test call for this compound, please: "COc1ccc(CCN2CCC(Nc3nc4ccccc4n3Cc3ccc(F)cc3)CC2)cc1"
active

New cases:
Test call for this compound, please: "C#C[C@]1(O)CC[C@H]2[C@@H]3CCc4cc(OC5CCCC5)ccc4[C@H]3CC[C@@]21C"
inactive

Test call for this compound, please: "C[C@@H]1C(=O)NC2=Nc3cccc(Cl)c3CN21"
inactive

Test call for this compound, please: "CC(C)NC[C@@H](O)COc1cccc2ccccc12"
active

Test call for this compound, please: "COc1c(C)c2c(c(O)c1C/C=C(\C)CCC(=O)O)C(=O)OC2"
active

Test call for this compound, please: "Cc1cc(N)c2cc(NC(=O)Nc3ccc4nc(C)cc(N)c4c3)ccc2n1"
active

Test call for this compound, please: "CCn1cc(C(=O)O)c(=O)c2cnc(N3CCCC3)nc21"
inactive

Test call for this compound, please: "C[C@@H]1CN(CCCn2c3ccccc3c3ccccc32)C[C@H](C)N1"
active

----------
- runDescription: qHTS of pediatric cancer cell lines to identify multiple opportunities for drug repurposing: Primary screen for Saos-2 cells (AID 1347097); further: nearly all actives have a fitted effect of over 40% in size
- measurementSetup: Saos-2 viability, CellTiter-Glo ATP luminescence, 48 h; series mostly up to 46 µM
Inconclusive results are not listed. The source made the active and inactive calls. Calls come from the whole dose curve; as a rule, active = well fitted cell-killing curve with a large enough effect; inconclusive = small, poorly fitted or top-dose-only effect; inactive = no such curve, though single readings can be large or run the other way.
Answer with one of the outcomes TRUE = active, FALSE = inactive

Test call for this compound, please: "Oc1ccc(O)cc1"
FALSE

Test call for this compound, please: CCN(CC)CCOc1ccc(C(O)(Cc2ccc(Cl)cc2)c2ccc(C)cc2)cc1 (stereo not drawn)
TRUE

--- query ---
Test call for this compound, please: "O=c1ccc2ccccc2o1"
FALSE

----------
- runDescription: P-glycoprotein substrates identified in KB-8-5-11 adenocarcinoma cell line, qHTS therapeutic library screen (AID 1346987); further: nearly all actives have a fitted effect of over 65% in size
- measurementSetup: KB-8-5-11 (P-gp overexpressing) viability, CellTiter-Glo, 72 h; series mostly up to 44.5 µM
Records with an inconclusive call do not appear. Active and inactive are the calls of the source. Calls come from the whole dose curve; as a rule, active = well fitted inhibition curve with a large enough effect; inconclusive = small, poorly fitted or top-dose-only effect; inactive = flat fitted curve, though single readings scatter.
Answer with one of the outcomes active, inactive

Below are worked cases with known answers.
Test call for this compound, please: "CNC(=O)CN(CCN(CCN(CC(=O)[O-])CC(=O)NC)CC(=O)[O-])CC(=O)[O-].O.[Gd+3]"
inactive

Test call for this compound, please: "C[C@@H]1C[C@H]2[C@@H]3C[C@H](F)C4=CC(=O)C(Cl)=C[C@]4(C)[C@@]3(F)[C@@H](O)C[C@]2(C)[C@@]1(O)C(=O)CO"
inactive

Test call for this compound, please: CCCCN1CCCC1C(=O)Nc1c(C)cc(C)cc1C (centres undefined)
inactive

Test call for this compound, please: "CC(C)(C)NC(=O)[C@@H]1CN(Cc2cccnc2)CCN1C[C@@H](O)C[C@@H](Cc1ccccc1)C(=O)N[C@H]1c2ccccc2C[C@H]1O"
inactive

Test call for this compound, please: "CC(=O)c1ccc2c(c1)N(CCCN1CCC(CCO)CC1)c1ccccc1S2"
inactive

Test call for this compound, please: "COc1cc(C(=S)N2CCOCC2)cc(OC)c1OC"
inactive

Test call for this compound, please: "O=C(OCCOCCO)c1ccccc1Nc1cccc(C(F)(F)F)c1"
inactive

Test call for this compound, please: "C1CCc2nnnn2CC1"
inactive

New cases:
Test call for this compound, please: CC(Cc1ccccc1)(NC(=O)CN)c1ccccc1 (centres undefined)
inactive

Test call for this compound, please: "CC(C)COC(=O)OCN1C(=O)CN(CCN2CC(=O)N(COC(=O)OCC(C)C)C(=O)C2)CC1=O"
inactive

Test call for this compound, please: "CCCCCC=CCC=CCCCCCCCC(=O)OCC"
inactive

----------
- Test system: DIV17
- runDescription: qHTS profiling for inhibitors of Plasmodium falciparum proliferation (AID 504749); further: nearly all actives have a fitted effect of over 60% in size; further: potency means the concentration at half of the fitted maximal effect
- measurementSetup: P. falciparum in erythrocytes, SYBR Green DNA, 72 h; series mostly up to 28.7 µM
- Protocol: NIH National Institute of Allergy and Infectious Diseases [NIAID] NIH Chemical Genomics Center [NCGC] […] Because mature erythrocytes lack DNA, only Plasmodium-derived DNA is detected. NCGC Assay Protocol Summary: The SYBR Green viability assay was adapted from a method described previously (Plouffe et al., 2008). […] The following morning, fluorescence intensity at 485(14) nm excitation and 535(25) nm emission wavelengths was measured on an EnVision (Perkin Elmer) plate reader. […]
Inconclusive results are not listed. The source made the active and inactive calls. Calls follow the shape of the dose curve; as a rule, active = well fitted inhibition curve with a large enough effect; inconclusive = small, poorly fitted or top-dose-only effect; inactive = flat fitted curve, though single readings scatter.
measureName: Potency

The compound identified as "CCCCCCc1ccc(O)cc1O" registered its Potency at inactive

The compound identified as "Oc1c(I)cc(Cl)c2cccnc12" registered its Potency at inactive

The compound identified as "C1CCc2nnnn2CC1" registered its Potency at inactive

The compound identified as CCC(C(=O)OCCN(CC)CC)c1ccccc1 (stereo not drawn) registered its Potency at inactive

The compound identified as "C[C@]12CC[C@@H]3c4ccc(O)cc4CC[C@H]3[C@@H]1CC[C@@H]2O" registered its Potency at inactive

The compound identified as "C[C@@H]1C(=O)NC2=Nc3cccc(Cl)c3CN21" registered its Potency at inactive

New cases:
The compound identified as "CCOC(=O)COc1ccc2c(C)c(CCN(CC)CC)c(=O)oc2c1Cl" registered its Potency at inactive

The compound identified as "CC(C)COC(=O)OCN1C(=O)CN(CCN2CC(=O)N(COC(=O)OCC(C)C)C(=O)C2)CC1=O" registered its Potency at inactive

The compound identified as "Nc1ccc(C(=O)Nc2ccccc2N)cc1" registered its Potency at inactive

The compound identified as "COc1ccc(CCN2CCC(Nc3nc4ccccc4n3Cc3ccc(F)cc3)CC2)cc1" registered its Potency at 4.78 µM (active)

The compound identified as "O=C1c2ccccc2C(=O)C1c1ccccc1" registered its Potency at inactive

The compound identified as "CCCCOc1ccc(OCCCN2CCOCC2)cc1" registered its Potency at inactive

The compound identified as "NCCC(O)(P(=O)(O)O)P(=O)(O)O" registered its Potency at inactive

The compound identified as "CCCCCC=CCC=CCCCCCCCC(=O)OCC" registered its Potency at inactive

----------
- runDescription: qHTS of pediatric cancer cell lines to identify multiple opportunities for drug repurposing: Primary screen for RD cells (AID 1347104); further: nearly all actives have a fitted effect of over 55% in size
- measurementSetup: RD rhabdomyosarcoma viability, CellTiter-Glo luminescence, 48 h; series mostly up to 46 µM
Inconclusive results are not listed. Calls of active or inactive are those of the source. The call rests on the fitted dose curve; in most records, active means well fitted cell-killing curve with a large enough effect; inconclusive means small, poorly fitted or top-dose-only effect; inactive means flat fitted curve, though single readings scatter.
Answer with one of the outcomes yes (1) = active, no (0) = inactive

Below are worked cases with known answers.
Test call for this molecule, please: "O=C(COc1ccc(Cl)cc1)N1CCN(Cc2ccc3c(c2)OCO3)CC1"
no (0)

Test call for this molecule, please: "Nc1ccc(C(=O)O)cc1"
no (0)

Test call for this molecule, please: "O=c1c(-c2ccccc2)c1-c1ccccc1"
yes (1)

Test call for this molecule, please: "Nc1ccn([C@@H]2O[C@H](CO)[C@@H](O)C2(F)F)c(=O)n1"
no (0)

--- query ---
Test call for this molecule, please: "C=C1C(=C/C=C2\CCC[C@]3(C)[C@@H]([C@H](C)/C=C/[C@@H](O)C4CC4)CC[C@@H]23)C[C@@H](O)C[C@@H]1O"
no (0)
